Target: Serotonin transporter (Homo sapiens, UniProt P31645)
Construct: expressed in transfected cells
Sequence (P31645 whole entry): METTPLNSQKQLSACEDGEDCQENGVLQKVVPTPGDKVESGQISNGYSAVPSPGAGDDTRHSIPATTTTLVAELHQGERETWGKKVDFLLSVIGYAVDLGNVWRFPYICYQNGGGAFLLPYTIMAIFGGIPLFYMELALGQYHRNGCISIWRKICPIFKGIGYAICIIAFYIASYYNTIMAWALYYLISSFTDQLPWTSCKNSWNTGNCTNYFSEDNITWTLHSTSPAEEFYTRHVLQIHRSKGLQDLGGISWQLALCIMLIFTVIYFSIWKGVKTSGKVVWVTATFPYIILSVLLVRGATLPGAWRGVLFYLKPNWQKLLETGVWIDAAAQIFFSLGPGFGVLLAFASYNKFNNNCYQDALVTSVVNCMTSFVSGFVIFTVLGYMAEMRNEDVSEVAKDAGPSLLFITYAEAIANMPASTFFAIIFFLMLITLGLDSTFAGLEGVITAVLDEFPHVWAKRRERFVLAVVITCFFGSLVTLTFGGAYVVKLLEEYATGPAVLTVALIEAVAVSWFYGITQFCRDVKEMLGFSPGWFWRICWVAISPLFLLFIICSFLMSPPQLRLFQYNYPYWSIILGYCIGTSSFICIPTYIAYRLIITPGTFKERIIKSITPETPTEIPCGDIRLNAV
Assay: CEREP panel serotonin transporter uptake (h), [3H]5HT incorporation
Type: cell-based
Details: HCl salt tested; [3H]5HT incorporation in cells
Description: The use of in vitro pharmacological screening against a diverse range of targets (receptors, ion channels, enzymes and transporters) is used to identify undesirable off-target activity that may cause adverse drug reactions in humans. Screening panels (e.g. SafetyScreen44™ Panel, Eurofins) comprise a selection of off-targets linked with known issues in humans that could hinder or halt the development of drug candidates or market withdrawal if discovered after a drug is approved. […]
Measured pIC50, listed per entry for reference.
Lab note: report pIC50 as minus log10 of the concentration in molar units, number only.

{"COMPOUND": "NCc1ccc(C(=O)Nc2ccncc2F)cc1-c1cccc(C(=O)Nc2ccc(SC[C@H]3CCOC3=O)cc2)c1 [S-enantiomer]", "TGT": "Serotonin transporter (Homo sapiens, UniProt P31645)", "RECORDED_MEASUREMENT": 4.96}

Shifting focus to the compound that follows.
Prompt: Determine from records and report pIC50 for NCc1ccc(C(=O)Nc2ccncc2F)cc1-c1cccc(C(=O)Nc2ccc(SC[C@@H]3CCOC3=O)cc2)c1 [R-enantiomer]
Response: 5.22

----------
test: Solubility testing in water, SGF, FaSSIF, FeSSIF at 37° C.; type: physicochemical; settings: pH of sample in Water (pH of media 7.9), 24 h
Structures can show the parent of a compound that is named as a salt.
Measured pH, listed per entry for reference.
Reply with just the number.

Use these answered entries as a reference point.
{"MOLECULE": "NCc1ccc(C(=O)Nc2ccncc2F)cc1-c1cccc(C(=O)Nc2ccc(SC[C@H]3CCOC3=O)cc2)c1 [HCl salt Form II]", "MEASURED_PROPERTY": "pH", "RECORDED_MEASUREMENT": 6.0}
{"MOLECULE": "NCc1ccc(C(=O)Nc2ccncc2F)cc1-c1cccc(C(=O)Nc2ccc(SC[C@H]3CCOC3=O)cc2)c1 [Freebase Form I]", "MEASURED_PROPERTY": "pH", "RECORDED_MEASUREMENT": 8.7}
{"MOLECULE": "NCc1ccc(C(=O)Nc2ccncc2F)cc1-c1cccc(C(=O)Nc2ccc(SC[C@H]3CCOC3=O)cc2)c1 (stereo in doubt) [HCl salt Form I]", "MEASURED_PROPERTY": "pH", "RECORDED_MEASUREMENT": 5.8}

Shifting focus to the molecule that follows.
Prompt: Determine from records and report pH for NCc1ccc(C(=O)Nc2ccncc2F)cc1-c1cccc(C(=O)Nc2ccc(SC[C@H]3CCOC3=O)cc2)c1 [Succinate Form I]
Response: 4.1

----------
experiment: Solubility testing in water, SGF, FaSSIF, FeSSIF at 37° C.; type: physicochemical; conditions: pH of sample in SGF (pH of media 1.2), 24 h
Structures can show the parent of a compound that is named as a salt.
Measured pH, listed per entry for reference.
Reply with just the number.

Use these answered entries as a reference point.
{"COMPOUND": "NCc1ccc(C(=O)Nc2ccncc2F)cc1-c1cccc(C(=O)Nc2ccc(SC[C@H]3CCOC3=O)cc2)c1 (stereo in doubt) [HCl salt Form I]", "RECORDED_MEASUREMENT": 1.4}
{"COMPOUND": "NCc1ccc(C(=O)Nc2ccncc2F)cc1-c1cccc(C(=O)Nc2ccc(SC[C@H]3CCOC3=O)cc2)c1 [HCl salt Form II]", "RECORDED_MEASUREMENT": 1.4}
{"COMPOUND": "NCc1ccc(C(=O)Nc2ccncc2F)cc1-c1cccc(C(=O)Nc2ccc(SC[C@H]3CCOC3=O)cc2)c1 [Succinate Form I]", "RECORDED_MEASUREMENT": 1.3}

Shifting focus to the compound that follows.
Prompt: Determine from records and report pH for NCc1ccc(C(=O)Nc2ccncc2F)cc1-c1cccc(C(=O)Nc2ccc(SC[C@H]3CCOC3=O)cc2)c1 [Freebase Form I]
Response: 1.4

----------
Assay: Solubility testing in water, SGF, FaSSIF, FeSSIF at 37° C.
Assay type: physicochemical
Conditions: pH of sample in FeSSIF (pH of media 5.0), 24 h
Method: About 15 mg of sample was weighed into each sample vial and then 3.0 mL of water, simulated gastric fluid (SGF), Fasted State Simulated Intestinal Fluid (FaSSIF) or Fed State Simulated Intestinal Fluid (FeSSIF) media was added. Samples were prepared in triplicate for each media. The suspensions were kept shaking at 37° C. for up to 24 h. At 0.5, 2 and 24 h, suspensions were filtered and the filtrate was analyzed by HPLC.
Where a name gives a salt, the structure may show the parent alone.
Measured pH, listed per entry for reference.

{"MOLECULE": "NCc1ccc(C(=O)Nc2ccncc2F)cc1-c1cccc(C(=O)Nc2ccc(SC[C@H]3CCOC3=O)cc2)c1 [Freebase Form I]", "pH": 5.0}
{"MOLECULE": "NCc1ccc(C(=O)Nc2ccncc2F)cc1-c1cccc(C(=O)Nc2ccc(SC[C@H]3CCOC3=O)cc2)c1 (stereo in doubt) [HCl salt Form I]", "pH": 4.9}
{"MOLECULE": "NCc1ccc(C(=O)Nc2ccncc2F)cc1-c1cccc(C(=O)Nc2ccc(SC[C@H]3CCOC3=O)cc2)c1 [HCl salt Form II]", "pH": 4.9}

Prompt: Determine from records and report pH for NCc1ccc(C(=O)Nc2ccncc2F)cc1-c1cccc(C(=O)Nc2ccc(SC[C@H]3CCOC3=O)cc2)c1 [Succinate Form I]
Response: 4.8

----------
experiment: Solubility testing in water, SGF, FaSSIF, FeSSIF at 37° C.; type: physicochemical; settings: pH of sample in Water (pH of media 7.9), 0.5 h
Counter-ions that a name gives are not always drawn.
Measured pH, listed per entry for reference.
Reply with just the number.

Use these answered entries as a reference point.
{"MOLECULE": "NCc1ccc(C(=O)Nc2ccncc2F)cc1-c1cccc(C(=O)Nc2ccc(SC[C@H]3CCOC3=O)cc2)c1 (stereo in doubt) [HCl salt Form I]", "pH": 5.6}
{"MOLECULE": "NCc1ccc(C(=O)Nc2ccncc2F)cc1-c1cccc(C(=O)Nc2ccc(SC[C@H]3CCOC3=O)cc2)c1 [Succinate Form I]", "pH": 4.3}
{"MOLECULE": "NCc1ccc(C(=O)Nc2ccncc2F)cc1-c1cccc(C(=O)Nc2ccc(SC[C@H]3CCOC3=O)cc2)c1 [Freebase Form I]", "pH": 7.9}

Shifting focus to the molecule that follows.
Prompt: Determine from records and report pH for NCc1ccc(C(=O)Nc2ccncc2F)cc1-c1cccc(C(=O)Nc2ccc(SC[C@H]3CCOC3=O)cc2)c1 [HCl salt Form II]
Response: 4.9

----------
assay: Solubility testing in water, SGF, FaSSIF, FeSSIF at 37° C.; assay type: physicochemical; conditions: pH of sample in FaSSIF (pH of media 6.5), 24 h
Counter-ions that a name gives are not always drawn.
MEASURED_PROPERTY: pH
Reply with just the number.

Use these answered entries as a reference point.
{"MOLECULE": "NCc1ccc(C(=O)Nc2ccncc2F)cc1-c1cccc(C(=O)Nc2ccc(SC[C@H]3CCOC3=O)cc2)c1 [HCl salt Form II]", "pH": 6.4}
{"MOLECULE": "NCc1ccc(C(=O)Nc2ccncc2F)cc1-c1cccc(C(=O)Nc2ccc(SC[C@H]3CCOC3=O)cc2)c1 [Succinate Form I]", "pH": 5.6}
{"MOLECULE": "NCc1ccc(C(=O)Nc2ccncc2F)cc1-c1cccc(C(=O)Nc2ccc(SC[C@H]3CCOC3=O)cc2)c1 (stereo in doubt) [HCl salt Form I]", "pH": 6.4}

Shifting focus to the molecule that follows.
Prompt: Determine from records and report pH for NCc1ccc(C(=O)Nc2ccncc2F)cc1-c1cccc(C(=O)Nc2ccc(SC[C@H]3CCOC3=O)cc2)c1 [Freebase Form I]
Response: 6.5

----------
biological target: CB2 (h) (Homo sapiens); test: CEREP panel CB2 (h) antagonist effect, cAMP HTRF; settings: HCl salt tested; CHO cells, WIN 55212-2 (3 nM)
Sequence (P34972 whole entry): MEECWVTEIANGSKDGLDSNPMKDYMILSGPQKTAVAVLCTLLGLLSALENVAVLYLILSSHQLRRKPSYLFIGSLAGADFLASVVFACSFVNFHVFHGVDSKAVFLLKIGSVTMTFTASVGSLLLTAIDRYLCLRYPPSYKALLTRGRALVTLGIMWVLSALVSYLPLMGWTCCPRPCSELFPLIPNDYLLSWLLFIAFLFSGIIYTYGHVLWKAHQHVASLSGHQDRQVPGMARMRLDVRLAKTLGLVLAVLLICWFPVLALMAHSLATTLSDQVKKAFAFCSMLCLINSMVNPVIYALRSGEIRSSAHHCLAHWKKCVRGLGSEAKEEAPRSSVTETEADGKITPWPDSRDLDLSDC
MEASURED_PROPERTY: IC50 (µM)
Please reply with the bare figure in µM and do not write the unit itself.

Prompt: Determine from records and report IC50 for NCc1ccc(C(=O)Nc2ccncc2F)cc1-c1cccc(C(=O)Nc2ccc(SC[C@@H]3CCOC3=O)cc2)c1 [R-enantiomer]
Response: 38

----------
Target: PKCtheta (Homo sapiens, UniProt Q04759)
Sequence (Q04759 whole entry): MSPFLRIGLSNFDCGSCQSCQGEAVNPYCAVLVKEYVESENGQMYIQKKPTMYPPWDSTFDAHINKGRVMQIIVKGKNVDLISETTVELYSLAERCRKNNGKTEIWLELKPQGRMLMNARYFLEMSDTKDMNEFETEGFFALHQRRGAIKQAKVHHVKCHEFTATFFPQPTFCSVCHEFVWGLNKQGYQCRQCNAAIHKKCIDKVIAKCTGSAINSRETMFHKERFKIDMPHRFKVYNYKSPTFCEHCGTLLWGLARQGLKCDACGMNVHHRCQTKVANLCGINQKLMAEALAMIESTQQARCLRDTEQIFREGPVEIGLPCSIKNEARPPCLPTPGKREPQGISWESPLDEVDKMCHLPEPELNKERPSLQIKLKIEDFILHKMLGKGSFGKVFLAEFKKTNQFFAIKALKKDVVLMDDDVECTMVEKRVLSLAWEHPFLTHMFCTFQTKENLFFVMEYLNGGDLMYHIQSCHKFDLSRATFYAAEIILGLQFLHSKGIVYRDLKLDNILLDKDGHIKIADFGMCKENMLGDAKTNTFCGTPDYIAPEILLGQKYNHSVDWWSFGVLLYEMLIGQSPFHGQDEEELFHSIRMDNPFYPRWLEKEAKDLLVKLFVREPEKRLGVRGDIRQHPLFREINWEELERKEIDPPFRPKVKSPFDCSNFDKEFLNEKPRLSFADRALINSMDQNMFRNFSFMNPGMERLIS
Assay: Kinase panel 33P-ATP filter assay, PKCtheta
Format: biochemical
Details: HCl salt tested; ATP Conc. 30 μM (Km); read-out: Compound IC50 (nM) PKCtheta
Description: The HCl salts of S enantiomer and the R enantiomer of compound A were tested against a panel of kinases. Compounds were received as powder and resuspended to 10 mM DMSO stock. Compounds were tested in 10-dose IC50 mode with a 3-fold serial dilution starting at 10 μM. Control compound, staurosporine, was tested in 10-dose IC50 mode with 4-fold serial dilution starting at 20 μM. […]
MEASURED_PROPERTY: IC50

{"COMPOUND": "NCc1ccc(C(=O)Nc2ccncc2F)cc1-c1cccc(C(=O)Nc2ccc(SC[C@H]3CCOC3=O)cc2)c1 [S-enantiomer]", "TGT": "PKCtheta (Homo sapiens, UniProt Q04759)", "IC50": "9.9 nM"}

Shifting focus to the compound that follows.
Prompt: Determine from records and report IC50 for NCc1ccc(C(=O)Nc2ccncc2F)cc1-c1cccc(C(=O)Nc2ccc(SC[C@@H]3CCOC3=O)cc2)c1 [R-enantiomer]
Response: 4.4 nM
